# Substrate: C=CCO[C@@H]1O[C@H](CO)[C@@H](O[C@@H]2O[C@H](CO)[C@H](O[C@H]3O[C@H](CO)[C@H](O)[C@H](O[C@@H]4O[C@H](CO)[C@H](O)[C@H](O)[C@H]4NC(C)=O)[C@H]3O)[C@H](O)[C@H]2O)[C@H](O)[C@H]1O
# assay.summary: UDP release, Michaelis-Menten fit
# Assay type: biochemical, Homo sapiens
# stated.conditions: 10 mM UDP-sugar (UDP-Gal) fixed, 20 mM HEPES pH 7.4, 0.1 mM MnCl2
Labelling field: enter 1.0 if recorded Km is less than 1000 µM. Enter 0.0 if it equals or exceeds that cut-off.

Answered cases to consult:
soluble β3GalT5-1 (HEK293) (Homo sapiens) (protein, soluble luminal domain N29-V310, no TM; expressed in HEK293 cells, complex-type N-glycans) NPFKEQSFVYKKDGNFLKLPDTDCRQTPPFLVLLVTSSHKQLAERMAIRQTWGKERMVKGKQLKTFFLLGTTSSAAETKEVDQESQRHGDIIQKDFLDVYYNLTLKTMMGIEWVHRFCPQAAFVMKTDSDMFINVDYLTELLLKKNRTTRFFTGFLKLNEFPIRQPFSKWFVSKSEYPWDRYPPFCSGTGYVFSGDVASQVYNVSKSVPYIKLEDVFVGLCLERLNIRLEELHSQPTFFPGGLRFSVCLFRRIVACHFIKPRTLLDYWQALENSRGEDCPPV    0.0
soluble β3GalT5-1 (HEK293) (Homo sapiens; Q69A) (protein, soluble luminal domain N29-V310, no TM; expressed in HEK293 cells, complex-type N-glycans) NPFKEQSFVYKKDGNFLKLPDTDCRQTPPFLVLLVTSSHKALAERMAIRQTWGKERMVKGKQLKTFFLLGTTSSAAETKEVDQESQRHGDIIQKDFLDVYYNLTLKTMMGIEWVHRFCPQAAFVMKTDSDMFINVDYLTELLLKKNRTTRFFTGFLKLNEFPIRQPFSKWFVSKSEYPWDRYPPFCSGTGYVFSGDVASQVYNVSKSVPYIKLEDVFVGLCLERLNIRLEELHSQPTFFPGGLRFSVCLFRRIVACHFIKPRTLLDYWQALENSRGEDCPPV    0.0
soluble β3GalT5-1 (HEK293) (Homo sapiens; Q69A/S66A) (protein, soluble luminal domain N29-V310, no TM; expressed in HEK293 cells, complex-type N-glycans) NPFKEQSFVYKKDGNFLKLPDTDCRQTPPFLVLLVTSAHKALAERMAIRQTWGKERMVKGKQLKTFFLLGTTSSAAETKEVDQESQRHGDIIQKDFLDVYYNLTLKTMMGIEWVHRFCPQAAFVMKTDSDMFINVDYLTELLLKKNRTTRFFTGFLKLNEFPIRQPFSKWFVSKSEYPWDRYPPFCSGTGYVFSGDVASQVYNVSKSVPYIKLEDVFVGLCLERLNIRLEELHSQPTFFPGGLRFSVCLFRRIVACHFIKPRTLLDYWQALENSRGEDCPPV    0.0
soluble β3GalT5-1 (HEK293) (Homo sapiens; S66A) (protein, soluble luminal domain N29-V310, no TM; expressed in HEK293 cells, complex-type N-glycans) NPFKEQSFVYKKDGNFLKLPDTDCRQTPPFLVLLVTSAHKQLAERMAIRQTWGKERMVKGKQLKTFFLLGTTSSAAETKEVDQESQRHGDIIQKDFLDVYYNLTLKTMMGIEWVHRFCPQAAFVMKTDSDMFINVDYLTELLLKKNRTTRFFTGFLKLNEFPIRQPFSKWFVSKSEYPWDRYPPFCSGTGYVFSGDVASQVYNVSKSVPYIKLEDVFVGLCLERLNIRLEELHSQPTFFPGGLRFSVCLFRRIVACHFIKPRTLLDYWQALENSRGEDCPPV    0.0
soluble β3GalT5-1 (HEK293) (Homo sapiens; Q69M/S66A) (protein, soluble luminal domain N29-V310, no TM; expressed in HEK293 cells, complex-type N-glycans) NPFKEQSFVYKKDGNFLKLPDTDCRQTPPFLVLLVTSAHKMLAERMAIRQTWGKERMVKGKQLKTFFLLGTTSSAAETKEVDQESQRHGDIIQKDFLDVYYNLTLKTMMGIEWVHRFCPQAAFVMKTDSDMFINVDYLTELLLKKNRTTRFFTGFLKLNEFPIRQPFSKWFVSKSEYPWDRYPPFCSGTGYVFSGDVASQVYNVSKSVPYIKLEDVFVGLCLERLNIRLEELHSQPTFFPGGLRFSVCLFRRIVACHFIKPRTLLDYWQALENSRGEDCPPV    0.0

Lab note: next protein to report on.
Incoming: Answer whether the protein soluble β3GalT5-1 (HEK293) (Homo sapiens; Q69M) (protein, soluble luminal domain N29-V310, no TM; expressed in HEK293 cells, complex-type N-glycans) NPFKEQSFVYKKDGNFLKLPDTDCRQTPPFLVLLVTSSHKMLAERMAIRQTWGKERMVKGKQLKTFFLLGTTSSAAETKEVDQESQRHGDIIQKDFLDVYYNLTLKTMMGIEWVHRFCPQAAFVMKTDSDMFINVDYLTELLLKKNRTTRFFTGFLKLNEFPIRQPFSKWFVSKSEYPWDRYPPFCSGTGYVFSGDVASQVYNVSKSVPYIKLEDVFVGLCLERLNIRLEELHSQPTFFPGGLRFSVCLFRRIVACHFIKPRTLLDYWQALENSRGEDCPPV has Km strictly less than 1000 µM
Outgoing: 1.0
